The values you see were collected from paper PMC9921851.

# Test system: PSMA-expressing LNCaP tumor xenografts
# assay.comment: Ex vivo biodistribution in LNCaP tumor-bearing mice
# test.parameters: LNCaP tumor-bearing mice, 1 h post injection, mean ± SD, n = 4
endpoint: Spleen uptake (%ID/g)

N#C[C@@H]1CC(F)(F)CN1C(=O)CNC(=O)c1ccnc2ccc(OCCCc3cn(CC(=O)N[C@@H](CCCCNC(=O)CN4CCN(CC(=O)[O-])CCN(CC(=O)[O-])CCN(CC(=O)[O-])CC4)C(=O)NCC(=O)NC[C@H]4CC[C@H](C(=O)N[C@@H](Cc5c6ccccc6cc6ccccc56)C(=O)NCCCC[C@H](NC(=O)N[C@@H](CCC(=O)O)C(=O)O)C(=O)O)CC4)nn3)cc12.[68Ga+3] [[^68Ga]Ga-AV01017]; 3.73

---

# System: FAP-expressing HEK293T:hFAP tumor xenografts
# assay.comment: Ex vivo biodistribution in HEK293T:hFAP tumor-bearing mice
# test.parameters: 1 h post injection, mean ± SD, n = 4
Note to self: Testes uptake under 0.7 %ID/g means Condition met, ties and anything higher get Condition not met.

N#C[C@@H]1CC(F)(F)CN1C(=O)CNC(=O)c1ccnc2ccc(-c3cn(CC(=O)N[C@@H](CCCCNC(=O)CN4CCN(CC(=O)[O-])CCN(CC(=O)[O-])CCN(CC(=O)[O-])CC4)C(=O)NCC(=O)NC[C@H]4CC[C@H](C(=O)N[C@@H](Cc5c6ccccc6cc6ccccc56)C(=O)NCCCC[C@H](NC(=O)N[C@@H](CCC(=O)O)C(=O)O)C(=O)O)CC4)nn3)cc12.[68Ga+3] [[^68Ga]Ga-AV01030]; Condition met
N#C[C@@H]1CC(F)(F)CN1C(=O)CNC(=O)c1ccnc2ccc(OCCCc3cn(CC(=O)N[C@@H](CCCCNC(=O)CN4CCN(CC(=O)[O-])CCN(CC(=O)[O-])CCN(CC(=O)[O-])CC4)C(=O)NCC(=O)NC[C@H]4CC[C@H](C(=O)N[C@@H](Cc5c6ccccc6cc6ccccc56)C(=O)NCCCC[C@H](NC(=O)N[C@@H](CCC(=O)O)C(=O)O)C(=O)O)CC4)nn3)cc12.[68Ga+3] [[^68Ga]Ga-AV01017]; Condition not met
N#C[C@@H]1CC(F)(F)CN1C(=O)CNC(=O)c1ccnc2ccc(OCc3cn(CC(=O)N[C@@H](CCCCNC(=O)CN4CCN(CC(=O)[O-])CCN(CC(=O)[O-])CCN(CC(=O)[O-])CC4)C(=O)NCC(=O)NC[C@H]4CC[C@H](C(=O)N[C@@H](Cc5c6ccccc6cc6ccccc56)C(=O)NCCCC[C@H](NC(=O)N[C@@H](CCC(=O)O)C(=O)O)C(=O)O)CC4)nn3)cc12.[68Ga+3] [[^68Ga]Ga-AV01038]; Condition not met
N#C[C@@H]1CC(F)(F)CN1C(=O)CNC(=O)c1ccnc2ccc(OCCCN3CCN(C(=O)CN4CCN(CC(=O)[O-])CCN(CC(=O)[O-])CCN(CC(=O)[O-])CC4)CC3)cc12.[68Ga+3] [[^68Ga]Ga-FAPI-04, reference compound]; Condition met
O=C([O-])CN1CCN(CC(=O)[O-])CCN(CC(=O)NC[C@H]2CC[C@H](C(=O)N[C@@H](Cc3c4ccccc4cc4ccccc34)C(=O)NCCCC[C@H](NC(=O)N[C@@H](CCC(=O)O)C(=O)O)C(=O)O)CC2)CCN(CC(=O)[O-])CC1.[68Ga+3] [[^68Ga]Ga-HTK03041, reference compound]; Condition met

---

# System: PSMA-expressing LNCaP tumor xenografts
# assay.comment: Ex vivo biodistribution in LNCaP tumor-bearing mice
# test.parameters: LNCaP tumor-bearing mice, 1 h post injection, mean ± SD, n = 4
Measured Spleen uptake of individual entries
endpoint: Spleen uptake (%ID/g)

N#C[C@@H]1CC(F)(F)CN1C(=O)CNC(=O)c1ccnc2ccc(OCc3cn(CC(=O)N[C@@H](CCCCNC(=O)CN4CCN(CC(=O)[O-])CCN(CC(=O)[O-])CCN(CC(=O)[O-])CC4)C(=O)NCC(=O)NC[C@H]4CC[C@H](C(=O)N[C@@H](Cc5c6ccccc6cc6ccccc56)C(=O)NCCCC[C@H](NC(=O)N[C@@H](CCC(=O)O)C(=O)O)C(=O)O)CC4)nn3)cc12.[68Ga+3] [[^68Ga]Ga-AV01038]; 6.77
N#C[C@@H]1CC(F)(F)CN1C(=O)CNC(=O)c1ccnc2ccc(OCCCN3CCN(C(=O)CN4CCN(CC(=O)[O-])CCN(CC(=O)[O-])CCN(CC(=O)[O-])CC4)CC3)cc12.[68Ga+3] [[^68Ga]Ga-FAPI-04, reference compound]; 0.67
N#C[C@@H]1CC(F)(F)CN1C(=O)CNC(=O)c1ccnc2ccc(-c3cn(CC(=O)N[C@@H](CCCCNC(=O)CN4CCN(CC(=O)[O-])CCN(CC(=O)[O-])CCN(CC(=O)[O-])CC4)C(=O)NCC(=O)NC[C@H]4CC[C@H](C(=O)N[C@@H](Cc5c6ccccc6cc6ccccc56)C(=O)NCCCC[C@H](NC(=O)N[C@@H](CCC(=O)O)C(=O)O)C(=O)O)CC4)nn3)cc12.[68Ga+3] [[^68Ga]Ga-AV01030]; 6.50

---

# Tested on: FAP-expressing HEK293T:hFAP tumor xenografts
# assay.comment: Ex vivo biodistribution in HEK293T:hFAP tumor-bearing mice
# test.parameters: 1 h post injection, mean ± SD, n = 4
Measured Tumor/kidney uptake ratio of individual entries
endpoint: Tumor/kidney uptake ratio

N#C[C@@H]1CC(F)(F)CN1C(=O)CNC(=O)c1ccnc2ccc(OCCCc3cn(CC(=O)N[C@@H](CCCCNC(=O)CN4CCN(CC(=O)[O-])CCN(CC(=O)[O-])CCN(CC(=O)[O-])CC4)C(=O)NCC(=O)NC[C@H]4CC[C@H](C(=O)N[C@@H](Cc5c6ccccc6cc6ccccc56)C(=O)NCCCC[C@H](NC(=O)N[C@@H](CCC(=O)O)C(=O)O)C(=O)O)CC4)nn3)cc12.[68Ga+3] [[^68Ga]Ga-AV01017]; 0.11
O=C([O-])CN1CCN(CC(=O)[O-])CCN(CC(=O)NC[C@H]2CC[C@H](C(=O)N[C@@H](Cc3c4ccccc4cc4ccccc34)C(=O)NCCCC[C@H](NC(=O)N[C@@H](CCC(=O)O)C(=O)O)C(=O)O)CC2)CCN(CC(=O)[O-])CC1.[68Ga+3] [[^68Ga]Ga-HTK03041, reference compound]; 0.01
N#C[C@@H]1CC(F)(F)CN1C(=O)CNC(=O)c1ccnc2ccc(OCc3cn(CC(=O)N[C@@H](CCCCNC(=O)CN4CCN(CC(=O)[O-])CCN(CC(=O)[O-])CCN(CC(=O)[O-])CC4)C(=O)NCC(=O)NC[C@H]4CC[C@H](C(=O)N[C@@H](Cc5c6ccccc6cc6ccccc56)C(=O)NCCCC[C@H](NC(=O)N[C@@H](CCC(=O)O)C(=O)O)C(=O)O)CC4)nn3)cc12.[68Ga+3] [[^68Ga]Ga-AV01038]; 0.11
N#C[C@@H]1CC(F)(F)CN1C(=O)CNC(=O)c1ccnc2ccc(OCCCN3CCN(C(=O)CN4CCN(CC(=O)[O-])CCN(CC(=O)[O-])CCN(CC(=O)[O-])CC4)CC3)cc12.[68Ga+3] [[^68Ga]Ga-FAPI-04, reference compound]; 6.85

---

# System: FAP-expressing HEK293T:hFAP tumor xenografts
# assay.comment: Ex vivo biodistribution in HEK293T:hFAP tumor-bearing mice
# test.parameters: 1 h post injection, mean ± SD, n = 4
Measured Lacrimal gland uptake of individual entries
endpoint: Lacrimal gland uptake (%ID/g)

N#C[C@@H]1CC(F)(F)CN1C(=O)CNC(=O)c1ccnc2ccc(OCc3cn(CC(=O)N[C@@H](CCCCNC(=O)CN4CCN(CC(=O)[O-])CCN(CC(=O)[O-])CCN(CC(=O)[O-])CC4)C(=O)NCC(=O)NC[C@H]4CC[C@H](C(=O)N[C@@H](Cc5c6ccccc6cc6ccccc56)C(=O)NCCCC[C@H](NC(=O)N[C@@H](CCC(=O)O)C(=O)O)C(=O)O)CC4)nn3)cc12.[68Ga+3] [[^68Ga]Ga-AV01038]; 0.22
N#C[C@@H]1CC(F)(F)CN1C(=O)CNC(=O)c1ccnc2ccc(OCCCc3cn(CC(=O)N[C@@H](CCCCNC(=O)CN4CCN(CC(=O)[O-])CCN(CC(=O)[O-])CCN(CC(=O)[O-])CC4)C(=O)NCC(=O)NC[C@H]4CC[C@H](C(=O)N[C@@H](Cc5c6ccccc6cc6ccccc56)C(=O)NCCCC[C@H](NC(=O)N[C@@H](CCC(=O)O)C(=O)O)C(=O)O)CC4)nn3)cc12.[68Ga+3] [[^68Ga]Ga-AV01017]; 1.34
O=C([O-])CN1CCN(CC(=O)[O-])CCN(CC(=O)NC[C@H]2CC[C@H](C(=O)N[C@@H](Cc3c4ccccc4cc4ccccc34)C(=O)NCCCC[C@H](NC(=O)N[C@@H](CCC(=O)O)C(=O)O)C(=O)O)CC2)CCN(CC(=O)[O-])CC1.[68Ga+3] [[^68Ga]Ga-HTK03041, reference compound]; 0.25
